Please go through the items and note down their growth.
# Tested on: HOP-92 NSCLC
# Assay: NCI-60 one-dose screen, 48 h (100 = growth as untreated, 0 = no growth, -100 = all killed)
# Experimental parameters: 10 µM
Compounds without any hit were thinned out: in the full panel of roughly 83,000, 20% have a hit.
Unit % implied. Number only.

Given the entry `CN(C)CCNC(=O)c1ccc(-c2nc3ccc4[nH]ncc4c3c3c2COCC3)cc1` , report its measured growth.
-24.1

Entry under review: `CC1(C)CC[C@]23CC[C@]4(C)[C@H](CC[C@@H]5[C@@]6(C)CCCN(CO)C(C)(C)[C@@H]6CC[C@]54C)[C@H]2[C@H]1OC3` . Reported growth?
77.5

What measured growth goes with `NC(N)=Nc1ccc(Oc2cccc(NC(N)=Nc3ccc(Cl)c(C(F)(F)F)c3)c2)cn1` ?
-1.32

Give the measured growth of `Cc1ccc(-c2nnc(SCc3ccc(O)c4ncccc34)o2)cc1` .
10.4

What value of measured growth is listed for `CC(=O)c1ccc(Nc2nc(SCC(C)C)nc(-c3ccccc3)c2C#N)cc1` ?
44.6

Recorded growth of `C=C1CC[C@@H]2[C@](C)(CO)[C@H](O)CC[C@@]2(C)[C@@H]1C/C(O)=C1\CCOC1=O` , please.
101

Please look up its growth: `CS(=O)(=O)Nc1cc(-c2ccc3ncc(C#N)c(Nc4cccc(Cl)c4F)c3c2)cnc1Cl`
-25

Can you look up the measured growth of `NC(N)=Nc1ccc(Oc2cccc(NC(N)=Nc3ccc(I)cc3F)c2)cc1` for me?
39

Reported growth for `Cn1ccnc1C(=O)/C=C/C=C/c1ccc(C(=O)Nc2ccc(F)cc2)cc1` : what is it?
82.9

For the compound shown here, `CC1=NC2=NC(=O)/C(=C3/N=C(C)C=C(c4ccccc4)N3N)NN2C(c2ccccc2)=C1` , give the reported growth.
100

What value of growth has been reported for the following compound? `CS(=O)(=O)c1ccc(-n2cc(/C=N/O)c(-c3ccccc3)n2)cc1`
87.9

Which growth is listed for `CCN1CCN(Cc2ccc(C(=O)Nc3ccc(C)c(Oc4ccc(-c5[nH]nc6ncnc(N)c56)cc4)c3)cc2C(F)(F)F)CC1` ?
70.3

May I ask what growth has been recorded for `CNC(=O)c1cc(N2CCc3cc(NC(=O)Nc4ccc(Cl)c(C(F)(F)F)c4)ccc32)ccn1` ?
68

Reported growth for `CN(C)C(=O)c1cc(-c2ccc3ncnc(NCc4ccccc4)c3c2)cnc1N` : what is it?
81.1

I am curious: what growth value has been reported for `COc1ccc(Oc2ccc(/C=N/NC(=O)CSc3nc4ccccc4c(=O)n3-c3ccc(Cl)cc3)cc2)cc1` ?
77.3

# query: growth of entry `O=C1[C@H]2Cc3c([nH]c4ccccc34)[C@@H](c3ccc(Br)cc3)N2C(=O)CN1C1CCN(CC2CCCCC2)CC1`
-59.4

Reported growth for COc1ccc(/C=N/NC2=NC3C(S2)N(C)C(=O)N3C)cc1 (centres undefined) : what is it?
30.7

Requested field: growth. Item: `C#Cc1nc(/C=C/C(=O)c2nccn2C)cs1`
-71

Query: growth; subject: `CC/C(=C/c1c(O)cccc1OC)c1ccc2c(OC)cccc2[o+]1`
110
